Assignment: determine reported residual activity for the given compounds.
molecular target: ROCK2 (human); experiment: radiometric filter-binding kinase assay, Kinase HotSpot; conditions: compound 0.5 µM; ATP 10 µM
Use % as the unit, but write only the number.

Q: Provide measured residual activity value, entry: O=C1NC(=O)C(c2c[nH]c3ccccc23)=C1c1c[nH]c2ccccc12
Result: 89.2

Q: Return residual activity for the following compound: Cn1nc2c3c(cccc31)C(=O)c1ccccc1-2
Result: 92.3

Q: Dear colleague, please send me the reported residual activity for CN(C)C[C@H]1CCn2c(c(C3=C(c4cn(C)c5ccccc45)C(=O)NC3=O)c3ccccc32)C1 when you can.
Result: 98.9

Q: // fetch residual activity given entry CCn1cnc2c(Nc3cccc(Cl)c3)nc(N[C@@H]3CCCC[C@@H]3N)nc21
Result: 90.6

Q: Tell me measured residual activity for CC(C)[C@H](CO)Nc1nc(Nc2cc(N)cc(Cl)c2)c2ncn(C(C)C)c2n1 please.
Result: 101

Q: Identify measured residual activity associated with O=C1Cc2c([nH]c3ccc(Br)cc23)-c2ccccc2N1
Result: 84.6

Q: Fill in residual activity for record Cn1sc(=O)n(Cc2ccccc2)c1=O
Result: 88.8

Q: Find the measured residual activity of CC(=O)O/N=C1\C(=C2\C(=O)Nc3cc(Br)ccc32)Nc2ccccc21 and report it.
Result: 91.7

Q: Name the recorded residual activity of the item O=C(Nc1cccc(Nc2cc(Nc3cccc(C(F)(F)F)c3)ncn2)c1)C1CC1 in your answer.
Result: 99.2

Q: Look up and state reported residual activity for O=C(O)/C=C/c1cc(Br)c(Br)c(Br)c1Br
Result: 94.2

Q: Name the recorded residual activity of the compound listed here: O=C(CCCc1ccc(-c2ccccc2F)cc1)Nc1ccc(O)cc1
Result: 90.5

Q: Read off the recorded residual activity for O=C1Nc2ccccc2/C1=C1/Nc2ccccc2/C1=N\OCCC(O)CO (stereo unspecified)
Result: 91

Q: Tell me residual activity reported for CC(C)c1nn(-c2c(Cl)cccc2Cl)c2nc(Cc3ccc(OCCO)cc3)nc(O)c12
Result: 92.5

Q: Name the recorded residual activity of the item CCN(CC)CCCCN1c2ccccc2Oc2ccc(Cl)cc21 in your answer.
Result: 104

Q: For the compound Cn1cnc2cc3c(Nc4cccc(Br)c4)ncnc3cc21 , give its measured residual activity value.
Result: 88.5

Q: Please look at this compound and report its residual activity: Cc1nc2cc3nc(-c4cccs4)cnc3cc2n1C
Result: 107
